Entry source: patent US9409952B2

Experiment: PAMPA (parallel artificial membrane permeability assay)
Assay type: in vitro ADME
Settings: PAMPA; membrane permeation rate (Pe); 50 mM MOPSO buffer pH 6.5 with 5.0% glycocholic acid, 37° C., 18 hours; read-out: iPAMPA Pe
Starred links: 1 amine or outer side, 2 acyl side, 3 side chain; linkers in the order of their positions; H or OH if unused. Positions of bridges follow the written chain, without caps; N, C: chain ends. Non-standard residues stand in square brackets, D forms with d. Residues, ends and D or L forms follow the SMILES beside them. *: point of attachment. NEtPhe = CCN[C@@H](Cc1ccccc1)C(=O)O; NMeF = CN[C@@H](Cc1ccccc1)C(=O)O; NMeGABA = CN(CCCC(=O)[*:2])[*:1]; NMeI = CC[C@H](C)[C@H](NC)C(=O)O; NMeL = CN[C@@H](CC(C)C)C(=O)O; NMeA = CN[C@@H](C)C(=O)O; Piperidide = C1CCN(*)CC1; Sar = CNCC(=O)O
// classify: if (Papp at 18 hours, 50 µM < 20 ×10⁻⁶ cm/s) Satisfied else Not satisfied

[[record]]
compound = "CC[C@H](C)[C@H]1C(=O)N(C)[C@@H](CC(C)C)C(=O)N[C@H](C(=O)N2CCCCC2)CC(=O)N(C)CC(=O)N[C@@H](CC(C)C)C(=O)N[C@@H]([C@@H](C)O)C(=O)N(C)CC(=O)N(CC)[C@@H](Cc2ccccc2)C(=O)N[C@@H](C)C(=O)N(C)[C@@H](Cc2ccccc2)C(=O)N(C)[C@@H](CC(C)C)C(=O)N1C [DP-546] ([Sar]LT[Sar][NEtPhe]A[NMeF][NMeL][NMeI][NMeL]D-Piperidide; lactam N-11)"
qualitative_label = "Not satisfied"

[[record]]
compound = "CC[C@H](C)[C@@H]1NC(=O)[C@H](Cc2ccccc2)N(C)C(=O)[C@@H]2CCCN2C(=O)[C@H]([C@@H](C)O)NC(=O)[C@H](CC(C)C)NC(=O)[C@H](C)N(C)C(=O)CCCN(C)C(=O)C[C@@H](C(=O)N2CCCCC2)NC(=O)[C@H](CC(C)C)NC(=O)[C@H](CC(C)C)N(C)C(=O)CNC(=O)[C@H](Cc2ccccc2)N(C)C1=O [DP-109] ([NMeGABA][NMeA]LTP[NMeF]I[NMeF]G[NMeL]LD-Piperidide; lactam N-12)"
qualitative_label = "Not satisfied"

[[record]]
compound = "CC(C)C[C@@H]1NC(=O)[C@H](Cc2ccccc2)N(C)C(=O)[C@H](Cc2ccccc2)N(C)C(=O)[C@H]([C@@H](C)O)NC(=O)CN(C)C(=O)[C@H](C)NC(=O)C[C@@H](C(=O)N2CCCCC2)NC1=O [DP-751] (A[Sar]T[NMeF][NMeF]LD-Piperidide; lactam N-7)"
qualitative_label = "Satisfied"

[[record]]
compound = "CC(C)C[C@@H]1NC(=O)[C@@H](C(C)C)NC(=O)C[C@@H](C(=O)N2CCCCC2)NC(=O)[C@H](Cc2ccccc2)NC(=O)[C@H](CC(C)C)N(C)C(=O)[C@H](Cc2ccccc2)N(C)C(=O)[C@H](C)N(C)C(=O)[C@H]([C@@H](C)O)NC1=O [DP-702] ([dV]LT[NMeA][NMeF][NMeL]FD-Piperidide; lactam N-8)"
qualitative_label = "Not satisfied"

[[record]]
compound = "CC[C@H](C)[C@@H]1NC(=O)[C@H](CC(C)C)N(C)C(=O)CN(C)C(=O)[C@H]([C@@H](C)O)NC(=O)[C@H](C)N(C)C(=O)C[C@@H](C(=O)N(C)[C@@H](Cc2ccccc2)C(=O)N(C)[C@@H](C)C(=O)N[C@H](C(=O)N[C@@H](C)C(=O)N2CCCCC2)C(C)C)NC(=O)[C@H](CC(C)C)N(C)C(=O)[C@H](Cc2ccccc2)N(C)C(=O)[C@H](CC(C)C)N(C)C1=O [DP-660] ([NMeA]T[Sar][NMeL]I[NMeL][NMeF][NMeL]D[NMeF][NMeA]VA-Piperidide; lactam N-9)"
qualitative_label = "Not satisfied"


---

Test: Metabolic stability in human hepatic microsome
Assay type: in vitro ADME
Settings: microsomes, pH 7.4; human hepatic microsome, NADPH(+); read-out: CL NADPH(+)
Starred links: 1 amine or outer side, 2 acyl side, 3 side chain; linkers in the order of their positions; H or OH if unused. Positions of bridges follow the written chain, without caps; N, C: chain ends. Non-standard residues stand in square brackets, D forms with d. Residues, ends and D or L forms follow the SMILES beside them. *: point of attachment. Phe(4-(CH2)5CO) = O=C([C@H](Cc1ccc(CCCCCC(=O)[*:3])cc1)N[*:1])[*:2]; NMeF = CN[C@@H](Cc1ccccc1)C(=O)O; NMeGABA = CN(CCCC(=O)[*:2])[*:1]; NMeL = CN[C@@H](CC(C)C)C(=O)O; NMeV = CN[C@H](C(=O)O)C(C)C; NMeA = CN[C@@H](C)C(=O)O; Piperidide = C1CCN(*)CC1; Sar = CNCC(=O)O
Parameter Measured: microsomal CLint at 1 uM (µL/min/mg)

[[record]]
compound = "CC(C)C[C@@H]1NC(=O)CCCCCc2ccc(cc2)C[C@@H](C(=O)N2CCCCC2)NC(=O)[C@H](Cc2ccccc2)N(C)C(=O)[C@H](CC(C)C)N(C)C(=O)CN(C)C(=O)[C@H]([C@@H](C)O)NC(=O)[C@H](C)N(C)C(=O)[C@H](C(C)C)N(C)C(=O)[C@H](C)NC(=O)[C@H](CC(C)C)N(C)C(=O)[C@H](Cc2ccccc2)N(C)C1=O [DP-881] (L[NMeF][NMeL]A[NMeV][NMeA]T[Sar][NMeL][NMeF][Phe(4-(CH2)5CO)]-Piperidide; lactam N-11)"
scale_unit = "µL/min/mg"
quantitative_readout = 83

[[record]]
compound = "C=C1CCC(=O)N[C@@H](CC(C)C)C(=O)N(C)[C@@H](CC(C)C)C(=O)N(C)[C@@H](Cc2ccccc2)C(=O)N[C@@H](C)C(=O)N(C)[C@@H](Cc2ccccc2)C(=O)N(C)[C@@H]([C@@H](C)CC)C(=O)N[C@@H]([C@@H](C)O)C(=O)N(C)CC(=O)N(C)[C@@H](CC(C)C)C(=O)N[C@H](C(=O)N2CCCCC2)Cc2ccc1cc2 [DP-854]"
scale_unit = "µL/min/mg"
quantitative_readout = 252

[[record]]
compound = "CC[C@H](C)[C@@H]1NC(=O)[C@H](Cc2ccccc2)N(C)C(=O)CN(C)C(=O)[C@H]([C@@H](C)O)NC(=O)[C@H](CC(C)C)NC(=O)[C@H](CC(C)C)N(C)C(=O)[C@H](C)N(C)C(=O)CCCN(C)C(=O)C[C@@H](C(=O)N2CCCCC2)NC(=O)[C@H](Cc2ccccc2)N(C)C(=O)[C@H](C(C)C)N(C)C1=O [DP-477] ([NMeGABA][NMeA][NMeL]LT[Sar][NMeF]I[NMeV][NMeF]D-Piperidide; lactam N-11)"
scale_unit = "µL/min/mg"
quantitative_readout = 30


---

Recorded microsomal CLint at 1 uM for the following compounds
Assay: Metabolic stability in human hepatic microsome
Type: in vitro ADME
Details: human, microsomes, pH 7.4, CL NADPH(+)
Positions of bridges follow the written chain, without caps; N, C: chain ends. Non-standard residues stand in square brackets, D forms with d. Residues, ends and D or L forms follow the SMILES beside them. *: point of attachment. NMeF = CN[C@@H](Cc1ccccc1)C(=O)O; NMeI = CC[C@H](C)[C@H](NC)C(=O)O; NMeL = CN[C@@H](CC(C)C)C(=O)O; NMeA = CN[C@@H](C)C(=O)O; Piperidide = C1CCN(*)CC1; Sar = CNCC(=O)O
Parameter Measured: microsomal CLint at 1 uM (µL/min/mg)

[[record]]
compound = "CC(C)C[C@H]1C(=O)N[C@@H](Cc2ccccc2)C(=O)N[C@H](C(=O)N(C)[C@@H](Cc2ccccc2)C(=O)N[C@@H](C)C(=O)N2CCCCC2)CC(=O)N(C)[C@@H](C)C(=O)N[C@@H]([C@@H](C)O)C(=O)N(C)[C@@H](C)C(=O)N[C@@H](C(C)C)C(=O)N(C)CC(=O)N(C)[C@@H](Cc2ccccc2)C(=O)N1C [DP-311] ([NMeA]T[NMeA]V[Sar][NMeF][NMeL]FD[NMeF]A-Piperidide; lactam N-9)"
quantitative_readout = 74

[[record]]
compound = "CC[C@H](C)[C@H]1C(=O)N(C)[C@@H](Cc2ccccc2)C(=O)NCC(=O)N[C@@H]([C@@H](C)O)C(=O)N[C@@H](Cc2ccccc2)C(=O)N(C)[C@@H](CC(C)C)C(=O)N2CCC[C@H]2C(=O)N[C@H](C(=O)N2CCCCC2)CC(=O)N[C@H](C)C(=O)N[C@@H](CC(C)C)C(=O)N(C)[C@@H](C)C(=O)N[C@@H](CC(C)C)C(=O)N1C [DP-54] ([dA]L[NMeA]L[NMeI][NMeF]GTF[NMeL]PD-Piperidide; lactam N-12)"
quantitative_readout = 13

[[record]]
compound = "CC[C@H](C)[C@H]1C(=O)N[C@H](C(=O)N2CCCCC2)CC(=O)N[C@H](C)C(=O)N[C@@H]([C@@H](C)O)C(=O)N(C)[C@@H](Cc2ccccc2)C(=O)N[C@@H](CC(C)C)C(=O)N(C)[C@@H](C)C(=O)N[C@@H](C(C)C)C(=O)N[C@@H](Cc2ccccc2)C(=O)N(C)[C@@H](CC(C)C)C(=O)N[C@@H](CC(C)C)C(=O)NCC(=O)N1C [DP-53] ([dA]T[NMeF]L[NMeA]VF[NMeL]LG[NMeI]D-Piperidide; lactam N-12)"
quantitative_readout = 60

